Tested on: HT-29
ASSAY EXPLANATION: Inhibitory activity against HT-29 human colon carcinoma cells containing P1-1 GST for treatment time of 120 min.
Type: functional, cell-based
CONDITION SUMMARY: HT-29, 2 h
MEASURED ENDPOINT: IC50 (µM)
Give just the numeric value; µM need not be written.

[
  {
    "COMPOUND": "NC(CCC(=O)NC(CS(=O)(=O)CCOP(=O)(N(CCCl)CCCl)N(CCCl)CCCl)C(=O)NCC(=O)O)C(=O)O (configuration not stated)",
    "MEASURED TARGET": "HT-29",
    "RECORDED RESULT": 68.9
  }
]

For the next question, use this compound.
Task item: Request the reported IC50 associated with NC(CCC(=O)NC(CS(=O)(=O)CCOP(=O)(N(CCCl)CCCl)N(CCCl)CCCl)C(=O)NC(C(=O)O)c1ccccc1)C(=O)O (configuration not stated)
Reply: 80.3

###

Tested on: MCF7
ASSAY EXPLANATION: Inhibitory activity against MCF-7 neo cells […] for treatment time of 120 min.
Assay type: functional, cell-based
CONDITION SUMMARY: Homo sapiens, MCF7, 2 h
Each entry below lists one item and its recorded IC50 value.
Field: numeric (µM). Do not append units.

[
  {
    "COMPOUND": "NC(CCC(=O)NC(CS(=O)(=O)CCOP(=O)(N(CCCl)CCCl)N(CCCl)CCCl)C(=O)NC(C(=O)O)c1ccccc1)C(=O)O (configuration not stated)",
    "RECORDED RESULT": 37.5
  }
]

Now consider the entry below.
Task item: Record lookup: for MCF7, what IC50 belongs to NC(CCC(=O)NC(CS(=O)(=O)CCOP(=O)(N(CCCl)CCCl)N(CCCl)CCCl)C(=O)NCC(=O)O)C(=O)O (configuration not stated) ?
Reply: 40.2
